Give Ki for every item shown.
- assayed_target: human 5HT1A receptor (Homo sapiens, UniProt P08908)
- Construct: expressed in transfected cells; host or cells: HEK cells (G418 selection)
- Sequence (P08908 whole entry): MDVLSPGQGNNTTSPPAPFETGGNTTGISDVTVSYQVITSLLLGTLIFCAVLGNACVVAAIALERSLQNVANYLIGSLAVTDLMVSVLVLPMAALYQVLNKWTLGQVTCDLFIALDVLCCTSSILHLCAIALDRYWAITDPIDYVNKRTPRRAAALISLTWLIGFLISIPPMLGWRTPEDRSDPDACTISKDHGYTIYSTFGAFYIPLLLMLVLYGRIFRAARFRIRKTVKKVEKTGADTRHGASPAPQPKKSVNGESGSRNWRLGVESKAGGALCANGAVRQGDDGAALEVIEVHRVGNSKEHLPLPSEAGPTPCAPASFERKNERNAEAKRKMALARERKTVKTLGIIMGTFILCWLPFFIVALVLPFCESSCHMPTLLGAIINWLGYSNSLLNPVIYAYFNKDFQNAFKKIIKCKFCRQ
- protocol_text: h5HT1A receptors: [3H]8-OH-DPAT binding
- applied_conditions: cells printed in μM under a head in nM; read-out: 5-HT1A [^3H] 8—OH DPAT Ki(nM) ± SEM

{"columns": ["molecule", "Ki"],
 "data": [
  ["CC1CN(CCn2c(=O)[nH]c3ccccc3c2=O)CCC1C(=O)c1ccc(F)cc1 (racemic) [R1=H, R2=α/β-CH3]", "> 10 µM"],
  ["CCOC(=O)[C@H]1CN(CCCn2c(=O)[nH]c3ccccc3c2=O)CC[C@H]1c1ccc(F)cc1 (racemic) [n=2]", "> 10 µM"],
  ["CCOC(=O)[C@@H]1CN(CCn2c(=O)[nH]c3ccccc3c2=O)CC[C@@H]1c1ccc(C)cc1 (racemic) [Compound 5b]", "> 10 µM"],
  ["CCOC(=O)[C@@H]1CN(CCn2c(=O)[nH]c3ccccc3c2=O)CC[C@@H]1c1ccc(C(C)O)cc1 (mixture of isomers) [Compound 5p]", "> 10 µM"],
  ["CCOC(=O)[C@@H]1CN(CCn2c(=O)[nH]c3ccccc3c2=O)CC[C@@H]1c1ccc(C(F)(F)F)cc1 (racemic) [Compound 5f]", "> 10 µM"],
  ["CCOC(=O)[C@@H]1CN(CCn2c(=O)c3ccccc3n(C)c2=O)CC[C@@H]1c1cccc(F)c1 (racemic) [Compound 6d]", "> 10 µM"],
  ["CCOC(=O)c1ccc([C@H]2CCN(CCn3c(=O)[nH]c4ccccc4c3=O)C[C@H]2C(=O)OCC)cc1 (racemic) [Compound 5l]", "> 10 µM"],
  ["O=C(c1ccc(F)cc1)C1CCN(CCn2c(=O)[nH]c3ccc(Br)cc3c2=O)CC1 [R1=Br, R2=H]", "> 2 µM"]
]}

q: Need Ki, item CC1CN(CCn2c(=O)[nH]c3ccccc3c2=O)CCC1C(=O)c1ccc(F)cc1 (single isomer, unassigned) [R1=H, R2=α-CH3]
a: > 5 µM
